- Experimental target: UniProtKB Q61616
- Sequence (Q61616 whole entry): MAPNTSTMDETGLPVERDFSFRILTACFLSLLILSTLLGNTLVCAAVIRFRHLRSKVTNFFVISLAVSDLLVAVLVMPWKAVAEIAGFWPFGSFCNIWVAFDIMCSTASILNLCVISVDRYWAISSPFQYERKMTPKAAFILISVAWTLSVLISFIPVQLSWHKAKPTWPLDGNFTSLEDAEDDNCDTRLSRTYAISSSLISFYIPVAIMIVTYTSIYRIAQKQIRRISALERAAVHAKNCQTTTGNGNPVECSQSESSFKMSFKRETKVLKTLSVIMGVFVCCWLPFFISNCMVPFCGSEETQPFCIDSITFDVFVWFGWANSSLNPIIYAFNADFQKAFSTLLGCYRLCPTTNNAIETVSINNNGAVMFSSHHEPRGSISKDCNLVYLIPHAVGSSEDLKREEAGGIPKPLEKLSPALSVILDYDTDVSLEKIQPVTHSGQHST
- Test details: Binding affinity against Dopamine receptor D1 was determined using [3H]SCH-23390 radioligand
Assay endpoint: pIC50
pIC50 here: minus log base 10 of the concentration, concentration in moles per litre.

So for `COc1cc(C(C)=O)ccc1OCCCN1CCC(c2noc3cc(F)ccc23)CC1` , the logged pIC50 turned out to be 6.12

----------
- Experimental target: 5-hydroxytryptamine receptor 1A (Mus musculus, UniProt Q64264)
- Sequence (Q64264 whole entry): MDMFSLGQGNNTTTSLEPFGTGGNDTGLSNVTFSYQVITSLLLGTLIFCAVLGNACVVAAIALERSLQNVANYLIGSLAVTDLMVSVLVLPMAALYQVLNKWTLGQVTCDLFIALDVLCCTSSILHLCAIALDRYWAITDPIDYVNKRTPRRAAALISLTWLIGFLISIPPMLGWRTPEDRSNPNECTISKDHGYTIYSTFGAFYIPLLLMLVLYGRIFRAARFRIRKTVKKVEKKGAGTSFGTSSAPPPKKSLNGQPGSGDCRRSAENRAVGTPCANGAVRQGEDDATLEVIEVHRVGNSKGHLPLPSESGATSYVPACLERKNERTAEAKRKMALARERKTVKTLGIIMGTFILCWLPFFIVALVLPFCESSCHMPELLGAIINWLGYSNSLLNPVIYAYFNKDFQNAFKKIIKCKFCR
Assay endpoint: IC50 (nM)
The figure you give is taken to be in nM; do not add the unit.

Field IC50 (system: 5-hydroxytryptamine receptor 1A (Mus musculus, UniProt Q64264)) for entry COc1cc(C(C)=O)ccc1OCCCN1CCC(c2noc3cc(F)ccc23)CC1 [ILOPERIDONE] = 210

----------
- Experimental target: 5-hydroxytryptamine receptor 2A (Bos taurus)
- Sequence (Q75Z89 whole entry): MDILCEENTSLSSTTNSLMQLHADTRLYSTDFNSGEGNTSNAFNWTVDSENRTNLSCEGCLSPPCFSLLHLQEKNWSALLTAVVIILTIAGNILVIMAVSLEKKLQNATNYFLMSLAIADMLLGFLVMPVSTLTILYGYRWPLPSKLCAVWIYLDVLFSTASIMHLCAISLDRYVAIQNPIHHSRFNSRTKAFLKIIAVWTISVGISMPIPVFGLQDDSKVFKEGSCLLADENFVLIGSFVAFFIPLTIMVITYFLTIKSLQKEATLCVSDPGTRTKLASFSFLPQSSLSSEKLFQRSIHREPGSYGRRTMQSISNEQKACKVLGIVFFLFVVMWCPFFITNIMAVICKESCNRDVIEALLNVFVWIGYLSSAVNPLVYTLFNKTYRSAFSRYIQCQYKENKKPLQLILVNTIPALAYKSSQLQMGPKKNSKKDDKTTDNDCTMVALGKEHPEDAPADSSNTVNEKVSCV
- Test details: Binding affinity against 5-hydroxytryptamine 2 receptor was determined using [ [3H]spiperone radioligand
Assay endpoint: pIC50
pIC50 here: minus log base 10 of the concentration, concentration in moles per litre.

So for `COc1cc(C(C)=O)ccc1OCCCN1CCC(c2noc3cc(F)ccc23)CC1` , the logged pIC50 turned out to be 8.05
